- measurement.protocol: Standard protocol for determination of kcat and KM (continuous spectrophotometric assay, Acetyl CoA hydrolysis at 235 nm)
- Assay type: biochemical
- run.parameters: purified protein; about 23° C.; pH 6.8; 0.2 mM acetyl CoA; glyphosate 0.125 to 10 mM
The reader will find reported Km values listed item by item below.
measurement.name: Km (µM)

>>> result("SEQ ID NO: 318: GAT polypeptide (protein, 14_6D4, GAT polypeptide) MIEVKPINAEDTYEIRHRILRPNQPLEACKYETDLLGGTFHLGGYYRGKLISIASFNQAEHPELEGQKQYQLRGMATLEGYREQKAGSTLIRHAEALLRKKGADLLWCNARTSASGYYKKLGFSEQGEVYDTPPVGPHILMYKKLT")
1000
>>> result("SEQ ID NO: 432: GAT polypeptide (protein, 9_4H10, GAT polypeptide) MIEVKPINAEDTYEIRHRILRPNQPLEACKYETDLLGGTLHLGGYYRGKLISIASFHQAEHPELEGQKQYQLRGMATLEGYREQKAGSTLIRHAEELLRKKGADLIWCNARTSASGYYKKLGFSEQGEVYDIPPVGPHILMYKKLT")
1500

Ref: patent US8008547B2
